# procedure-text: inhibition of 3D7 malaria parasite growth – strain 3D7 (AID 2306);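 also: 0% = DMSO wells and 100% = chloroquine plus artemisinin control wells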
# condition-context: P. falciparum 3D7 erythrocytic growth, LDH absorbance, 72 h; at 2 µM; active compounds read high
measurement-name: growth inhibition (%)
Give the quantity in %, number only.

// worked examples, growth inhibition included
c1ccc(C(c2ccccc2)N2CCN(C(c3cccnc3)c3nnnn3C3CCCC3)CC2)cc1 (stereo unspecified)	83
CCN(CC)CCN(Cc1ccc(-c2ccc(C(F)(F)F)cc2)cc1)C(=O)Cn1c(CCc2c(F)cccc2F)nc(=O)c2ccccc21	102
O=C(Nc1ccc(NC2=NCCN2)cc1)Nc1ccc(NC2=NCCN2)cc1	88
CCCNC(=O)CN1CN(c2ccccc2)C2(CCN(C(=O)c3ccc(C(C)(C)C)cc3)CC2)C1=O	99
O=c1cc(NCCCNCc2ccc(C(F)(F)F)c(F)c2)[nH]c2ccccc12	93

Per the record, `Cc1cccc2[nH]c(-c3ccc(-c4cccc(NC(=O)Nc5ccc(F)c(F)c5F)c4)cc3)nc12` has growth inhibition of 100

Per the record, `NOCCCCOc1ccc(Br)cc1` has growth inhibition of 99

Per the record, `O=C1CCCN1CCCNCc1ccc(-c2ccc(-c3nc4ccc(C(F)(F)F)cc4[nH]3)s2)cc1` has growth inhibition of 100

Per the record, `O=C(NCCCCN1CC=C(c2ccc3c(c2OCC2CC2)CCCC3)CC1)c1ccc(-c2ccc(C(F)(F)F)cc2)cc1` has growth inhibition of 93

Per the record, `CN1CCN(c2ccnc3cc4c(cc23)N(C(=O)Nc2ccc(-c3ccncc3)c3ccccc23)CC4)CC1` has growth inhibition of 101

Per the record, Cc1ccc(N2C(=O)C3C(C2=O)[C@]2(c4ccccc4)C(=O)[C@@]3(c3ccccc3)C(c3ccccc3)=C2c2ccccc2)cc1 (stereo partly specified) has growth inhibition of 92

Per the record, `COc1cc(NC(=O)/C=C/c2cc3ccccc3n2C)ccc1OCCN(C(C)C)C(C)C` has growth inhibition of 99

Per the record, `CS(=O)(=O)c1ccc(-c2cnc(N)c(-c3ccc(O)cc3)c2)cc1` has growth inhibition of 84

Per the record, `COc1ccc(-c2c(C(F)(F)F)nn(C)c2NC(=O)Nc2ccc(F)cc2F)cc1` has growth inhibition of 101

Per the record, `CC(C)CCOc1ccc(NC(=O)c2cccs2)cc1` has growth inhibition of 95

Per the record, `CCN1CCN(c2ccc(Nc3ccnc4ccc(Br)cc34)cc2)CC1` has growth inhibition of 98

---

# test-system: Protein kinase 7 (PK7), Plasmodium falciparum 3D7 (PF3D7_0213400) (UniProt Q7YTF7)
# procedure-text: inhibition of Plasmodium PK7 catalytic activity – biochemical, TCAMS antimalarial set, Kinase-Glo luminescence (AID 1159587)
# condition-context: recombinant PfPK7, Kinase-Glo ATP depletion luminescence
Calls of active or inactive are those of the source. The rule behind the calls is not given here.
measurement-name: outcome

COc1ccc(Nc2nccc(NCC(O)c3ccc(C(F)(F)F)cc3)n2)cc1 (stereo not drawn)	inactive
O=C(c1ccc(Cl)cc1)N1CCCC(C(=O)N(Cc2nnc(-c3ccccc3Cl)o2)C2CC2)C1 (stereo not drawn)	inactive
COc1ccc2nc3cc(Cl)ccc3c(NCCc3ccccc3)c2c1	inactive

---

# procedure-text: antimalarial activity against Dd2 strain (AID 2302);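 also: 0% = DMSO untreated growth and 100% = chloroquine plus artemisinin killed control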
# condition-context: P. falciparum Dd2 in RBCs, LDH growth readout, 72 h; at 2 µM
Calls of active or inactive are those of the source.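 Rule for the calls: active = growth inhibition above 50% at the single 2 µM test dose, taken to imply half-maximal potency below 2 µM; inactive = the rest.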
Respond with a class label; see active, inactive

COc1ccc(C2C(C(=O)Nc3cc(C)ccc3OC)c3ccccc3C(=O)N2C)cc1 (stereo unspecified)	inactive
c1ccc(Oc2ccc(Nc3ccnc4cc(-c5csc(CNCCN6CCOCC6)n5)ccc34)cc2)cc1	active
COc1ccc2nc(N(CCCn3ccnc3)C(=O)C=Cc3cccs3)sc2c1	inactive
CCCC(C)Nc1nc(C)cc(N[C@@H](Cc2ccccc2)C(=O)NCCOc2ccccc2)n1 (stereo partly specified)	active
O=C(NC1CCCCC1)N(Cc1ccc(-c2cccc(CNC3CCCC3)c2)cc1)C1CCN(Cc2ccccc2)CC1	active
O=C1O[C@H](c2ccccc2)[C@H](c2ccccc2)N(C(=O)OCc2ccccc2)[C@H]1Cc1ccccc1C1CCCC1	inactive

Identify the outcome logged in this assay for the compound shown: `OCC1CCN(Cc2cccc(-c3ccc(-c4nc5ccc(C(F)(F)F)cc5[nH]4)s3)c2)CC1`
active

Identify the outcome logged in this assay for the compound shown: `COc1ccc(CCN2CC[C@H](Nc3nc(-c4ccc(F)c(F)c4)nc4ccccc34)C2)cc1S(N)(=O)=O`
active

Identify the outcome logged in this assay for the compound shown: `CC(=O)Nc1ncc(C(=O)Nc2cccc(-c3ccc(-c4nc5ccc(F)cc5[nH]4)cc3)c2)s1`
active

Identify the outcome logged in this assay for the compound shown: `Cc1cc(N2CCC(NS(=O)(=O)c3ccccc3)CC2)nc(Nc2cccc(C#N)c2)n1`
inactive

Identify the outcome logged in this assay for the compound shown: `CN1CCN(c2ccc(-c3nc4c(C(N)=O)c(OCc5cc(Cl)cc(Cl)c5)ccc4[nH]3)cc2)CC1`
active

---

inhibition reference
# procedure-text: human hepatoma cell viability loss – ATP luminescence, cytotoxicity control for P. falciparum antimalarial project, primary screen (AID 2303);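 also: 0% = DMSO wells and 100% = digitonin-killed cells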
# condition-context: HepG2 viability, 24-48 h, at 10 µM, active compounds read high
Give the quantity in %, number only.

// worked examples, inhibition included
Fc1ccc2nc(-c3cccc(-c4ccc(CNCC5CCCO5)cc4)c3)[nH]c2c1 (configuration not stated)	36
Clc1cc(Cl)cc(Nc2ccnc(Nc3cc(Cl)cc(Cl)c3)n2)c1	11
O=C(N[C@H]1CCN(Cc2ccc(OCCCN3CCCCC3)cc2)C1)c1ccc2ccccc2c1	8
CC(=O)Nc1ccc(S(=O)(=O)N2CCN(c3nc(NC4CCCC4)c4ccccc4n3)CC2)cc1	7
O=C(C1CCCCC1)N1CCOC(CCN2CCC(c3ccccc3)CC2)(c2ccc(Cl)c(Cl)c2)C1 (configuration not stated)	6
Cc1cc(N[C@@H](Cc2ccccc2)C(=O)NCc2cccs2)nc(NCCc2cccnc2)n1	10

// next item, inhibition requested
Per the record, `O=C(CCc1cnc[nH]1)Nc1cccc(-c2ccc(-c3nc4ccc(F)cc4[nH]3)s2)c1` has inhibition of 17

---

# procedure-text: antimalarial activity against Dd2 strain (AID 2302);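 also: 0% = DMSO untreated growth and 100% = chloroquine plus artemisinin killed control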
# condition-context: P. falciparum Dd2 in RBCs, LDH growth readout, 72 h; at 2 µM; active compounds read high
measurement-name: growth inhibition (%)
Give the quantity in %, number only.

Nc1nc(Nc2cccc(O)c2)nc2ccccc12	79
CCN(CC)CCNc1ccnc2[nH]c3ccc(C)cc3c12	81
CC1(C)CN(CCC2CCC(NC(=O)/C=C/c3ccccc3F)CC2)Cc2ccc(C#N)cc21 (centres undefined)	82
CCc1cn(CCCOC)c2ccc(C(=O)N[C@@H](Cc3ccccc3)[C@H](O)CNCc3cccc(C(F)(F)F)c3)cc12	78
O=C(/C=C/c1ccc(Cl)c(Cl)c1)NCCCCCCN1CCCN(C(=O)Nc2ccc(C(F)(F)F)cc2)CC1	25

Per the record, `CS(=O)(=O)Nc1cccc(-c2cnc3[nH]cc(-c4cc(N)cc(C(=O)O)c4)c3c2)c1` has growth inhibition of 96

Per the record, `C[C@@H]1CN(c2cccc3c2nc(-c2cncc(C#N)c2)n3CCNCc2ccccc2)C[C@H](C)O1` has growth inhibition of 9

Per the record, CC(C)C(NC(=O)c1c(F)cccc1F)C(=O)Nc1ccc(Cc2nc3ccccc3s2)cc1 (centres undefined) has growth inhibition of 55

---

inhibition reference
# test-system: L-lactate dehydrogenase (Plasmodium falciparum (isolate CDC / Honduras)) (UniProt Q27743)
# Sequence (Q27743 whole entry, looked up): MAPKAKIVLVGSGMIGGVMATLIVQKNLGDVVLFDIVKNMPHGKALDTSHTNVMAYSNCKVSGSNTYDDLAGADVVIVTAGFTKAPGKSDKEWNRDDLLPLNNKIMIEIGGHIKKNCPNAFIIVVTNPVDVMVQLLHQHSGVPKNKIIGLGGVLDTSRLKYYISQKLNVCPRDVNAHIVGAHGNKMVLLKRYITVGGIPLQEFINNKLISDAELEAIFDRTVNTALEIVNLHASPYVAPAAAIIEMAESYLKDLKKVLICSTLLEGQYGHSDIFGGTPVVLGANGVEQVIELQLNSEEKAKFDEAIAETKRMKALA
# procedure-text: PfLDH activity inhibition – cell lysate, 3D7 strain, counter-screen for P. falciparum growth inhibition project (AID 2304);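 also: 0% = vehicle and 100% = reference inhibitor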
# condition-context: P. falciparum 3D7 crude extract, LDH APAD/NBT absorbance; at 2 µM; active compounds read high
Give the quantity in %, number only.

// worked examples, inhibition included
CCOc1cc(C(=O)N[C@@H](Cc2ccccc2)[C@H](O)CNCc2cc(OC)cc(OC)c2)cc(N2CCCC2=O)c1	4
COc1cc(F)c2ncc(Cl)c([C@@H](O)CN3CCC(NCc4ccc5c(n4)NC(=O)CO5)CC3)c2c1	1
CC(C)NC(=O)c1cccc(-c2cccc(OCCN3CCSCC3c3ccccc3)c2)c1 (configuration not stated)	2

Per the record, `CC(C)CNCc1cccc(-c2cccc(CN(CCCN3CCN(C)CC3)C(=O)Nc3ccccc3)c2)c1` has inhibition of 1

Per the record, `CC(C)C[C@@H](/C=N/N1CCOC1=O)NC(=O)[C@H](CC(C)C)NC(=O)c1ccc(F)cc1` has inhibition of -4

Per the record, `O=C(Nc1ccc(-c2ccc(-c3nc4ccccc4[nH]3)s2)cc1)Nc1ccsc1` has inhibition of 5

Per the record, `CC(C)(C)c1ccc(S(=O)(=O)Nc2ccccc2N2CCOCC2)cc1` has inhibition of 1

Per the record, `CCN(CC)CCN(Cc1ccc(-c2ccc(C(F)(F)F)cc2)cc1)C(=O)Cn1c(CCc2cccc(F)c2F)nc(=O)c2cc(C)ccc21` has inhibition of 0

Per the record, `COc1ccc(-c2cccc(NC(=O)c3cccc(Cl)c3)c2)cc1CN(C)CCN(C)C` has inhibition of 4

Per the record, `Cc1cccc2[nH]c(-c3cccc(-c4cccc(NC(=O)Nc5ccc(Cl)cc5)c4)c3)nc12` has inhibition of -2

Per the record, `CCN(CC)CCN(Cc1ccc(-c2ccc(C(F)(F)F)cc2)cc1)C(=O)Cn1c(CCc2cccc(F)c2F)nc(=O)c2ccc(F)cc21` has inhibition of 3

Per the record, CCN(CC)CC(O)c1cc(-c2ccc(OC)cc2)nc2cc(Cl)ccc12 (configuration not stated) has inhibition of -10

Per the record, `Cc1ccc(/C=C/C(=O)NCCCCCN2CCC(c3c[nH]c4ccccc34)CC2)cc1` has inhibition of 0

Per the record, `CCc1nonc1NC(=O)c1oc2c(C)c(C)ccc2c1C` has inhibition of -3

Per the record, `CC(C)n1ncc2c(C(=O)N3CCCc4ccccc43)cc(-c3ccccc3)nc21` has inhibition of 2

Per the record, `O=C(CSc1ccccn1)Nc1c(F)cccc1F` has inhibition of 1

Per the record, CC(C)(C)C1CC(=O)C[C@@H]2C(=O)N(c3ccc(Br)cc3)C(=O)[C@H]12 (some centres not stated) has inhibition of 1

Per the record, `Cc1cccc2[nH]c(-c3cccc(-c4ccc(NC(=O)Cc5ccccn5)cc4)c3)nc12` has inhibition of 3

Per the record, CCC(C)c1ccc(Nc2nc(C)cc(N(CC)CCCN3CCCCC3)n2)cc1 (configuration not stated) has inhibition of -7

Per the record, `CN(C)CCCNCc1ccc(-c2ccc(F)c(Cl)c2)o1` has inhibition of -7
